Molecular target: KiSS-1 receptor (Homo sapiens, UniProt Q969F8)
Sequence (Q969F8 whole entry): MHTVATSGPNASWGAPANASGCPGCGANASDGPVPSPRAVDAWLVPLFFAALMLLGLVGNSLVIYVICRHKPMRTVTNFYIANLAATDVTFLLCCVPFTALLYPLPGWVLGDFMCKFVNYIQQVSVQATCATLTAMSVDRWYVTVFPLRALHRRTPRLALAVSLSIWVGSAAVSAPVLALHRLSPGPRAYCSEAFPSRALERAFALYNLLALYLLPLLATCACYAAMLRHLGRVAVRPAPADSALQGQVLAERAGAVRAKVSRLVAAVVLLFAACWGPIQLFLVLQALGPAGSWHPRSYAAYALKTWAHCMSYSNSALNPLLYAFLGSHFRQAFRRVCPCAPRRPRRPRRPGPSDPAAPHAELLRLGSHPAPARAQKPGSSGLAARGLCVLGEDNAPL
Assay: Agonist activity at recombinant human KISS1R expressed in CHO cells assessed as intracellular calcium mobilization incubated for 30 mins at 37 degC and 30 mins at room temperature by Fluo-4 NW staining-based FLIPR assay relative to Metastin (45 to 54)
Type: functional, cell-based
Non-standard residues stand in square brackets, D forms with d. Residues, ends and D or L forms follow the SMILES beside them. Arg(Me) = CNC(=N)NCCC[C@H](N)C(=O)O; azaGly = NNC(=O)O
experimental endpoint: fold change (FC)

Item: CC[C@H](C)[C@H](NC(=O)[C@H](N)Cc1ccc(O)cc1)C(=O)N[C@@H](CC(N)=O)C(=O)N[C@@H](CO)C(=O)N[C@@H](Cc1ccccc1)C(=O)NNC(=O)N[C@@H](CC(C)C)C(=O)N[C@@H](CCCNC(=N)NC)C(=O)N[C@@H](Cc1ccccc1)C(N)=O (H-[dY]INSF[azaGly]L[Arg(Me)]F-NH2) | fold change (FC): 14

Data point: CNC(=N)NCCC[C@H](NC(=O)[C@H](CC(C)C)NC(=O)NNC(=O)[C@H](Cc1ccccc1)NC(=O)[C@H](CO)NC(=O)[C@H](CC(N)=O)NC(=O)[C@H](Cc1c[nH]c2ccccc12)NC(=O)[C@H](CC(N)=O)NC(=O)[C@@H](C)N)C(=O)N[C@@H](Cc1ccccc1)C(N)=O (H-[dA]NWNSF[azaGly]L[Arg(Me)]F-NH2) ; fold change (FC) = 4.9

Sure, the documented fold change (FC) for "CNC(=N)NCCC[C@H](NC(=O)[C@H](CC(C)C)NC(=O)NNC(=O)[C@H](Cc1ccccc1)NC(=O)[C@H](CO)NC(=O)[C@H](CC(N)=O)NC(=O)[C@H](Cc1c[nH]c2ccccc12)NC(=O)[C@H](N)Cc1cccnc1)C(=O)N[C@@H](Cc1ccccc1)C(N)=O" is 8.7

Data point: "CNC(=N)NCCC[C@H](NC(=O)[C@H](CC(C)C)NC(=O)NNC(=O)[C@H](Cc1ccccc1)NC(=O)[C@H](CO)NC(=O)[C@H](CC(N)=O)NC(=O)[C@H](Cc1c[nH]c2ccccc12)NC(=O)[C@@H](CC(N)=O)NC(=O)[C@H](N)Cc1ccc(O)cc1)C(=O)N[C@@H](Cc1ccccc1)C(N)=O" ; fold change (FC) = 2.6

According to the records, this molecule "CNC(=N)NCCC[C@H](NC(=O)[C@H](CC(C)C)NC(=O)NNC(=O)[C@H](Cc1ccccc1)NC(=O)[C@H](CO)NC(=O)[C@H](CC(N)=O)NC(=O)[C@H](Cc1c[nH]c2ccccc12)NC(=O)[C@H](CC(N)=O)NC(=O)[C@H](N)Cc1ccc(O)cc1)C(=O)N[C@@H](Cc1ccccc1)C(N)=O" displays fold change (FC) of 2.8

Per the records, this molecule ( "CNC(=N)NCCC[C@H](NC(=O)[C@H](CC(C)C)NC(=O)NNC(=O)[C@H](Cc1ccccc1)NC(=O)[C@H](CO)NC(=O)[C@H](CC(N)=O)NC(=O)[C@@H](Cc1c[nH]c2ccccc12)NC(=O)[C@@H](CC(N)=O)NC(=O)[C@H](N)Cc1ccc(O)cc1)C(=O)N[C@@H](Cc1ccccc1)C(N)=O" ) has fold change (FC) equal to 8.6

// field: fold change (FC); key: "CNC(=N)NCCC[C@H](NC(=O)[C@H](CC(C)C)NC(=O)NNC(=O)[C@H](Cc1ccccc1)NC(=O)[C@H](CO)NC(=O)[C@H](CC(N)=O)NC(=O)[C@H](Cc1ccccc1)NC(=O)[C@H](N)Cc1cccnc1)C(=O)N[C@@H](Cc1ccccc1)C(N)=O" ; value = 5.8

* * *

Target: KiSS-1 receptor (Rattus norvegicus, UniProt Q924U1)
Sequence (Q924U1 whole entry): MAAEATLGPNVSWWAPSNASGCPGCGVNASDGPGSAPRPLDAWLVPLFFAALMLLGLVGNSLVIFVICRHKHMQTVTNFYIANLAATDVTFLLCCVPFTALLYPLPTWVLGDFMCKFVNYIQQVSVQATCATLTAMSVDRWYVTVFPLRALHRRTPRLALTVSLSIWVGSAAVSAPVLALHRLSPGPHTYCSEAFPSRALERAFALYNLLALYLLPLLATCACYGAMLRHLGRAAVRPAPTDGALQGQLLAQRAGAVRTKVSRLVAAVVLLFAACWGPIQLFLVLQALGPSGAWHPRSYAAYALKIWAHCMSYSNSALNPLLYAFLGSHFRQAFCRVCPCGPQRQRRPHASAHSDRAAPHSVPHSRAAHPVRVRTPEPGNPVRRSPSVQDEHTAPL
Non-standard residues stand in square brackets, D forms with d. Residues, ends and D or L forms follow the SMILES beside them. 2Nal = N[C@@H](Cc1ccc2ccccc2c1)C(=O)O; Arg(Me) = CNC(=N)NCCC[C@H](N)C(=O)O; d4Pal = N[C@H](Cc1ccncc1)C(=O)O; azaGly = NNC(=O)O
experimental endpoint: Ki (nM)
// note: answer is a bare numeric in nM

The measured Ki associated with CNC(=N)NCCC[C@H](NC(=O)[C@H](CC(C)C)NC(=O)NNC(=O)[C@H](Cc1ccccc1)NC(=O)[C@H](CO)NC(=O)[C@H](CC(N)=O)NC(=O)[C@H](Cc1c[nH]c2ccccc12)NC(=O)[C@H](N)Cc1ccc(O)cc1)C(=O)N[C@@H](Cc1ccccc1)C(N)=O (H-[dY]WNSF[azaGly]L[Arg(Me)]F-NH2) reads 0.059

Lab note: measured Ki of CNC(=N)NCCC[C@H](NC(=O)[C@H](CC(C)C)NC(=O)NNC(=O)[C@H](Cc1ccccc1)NC(=O)[C@H](CO)NC(=O)[C@H](CC(N)=O)NC(=O)[C@@H](NC(=O)[C@H](N)Cc1ccc(O)cc1)[C@@H](C)O)C(=O)N[C@@H](Cc1ccccc1)C(N)=O (H-[dY]TNSF[azaGly]L[Arg(Me)]F-NH2) was 0.24

Entry under test: CNC(=N)NCCC[C@H](NC(=O)[C@H](CC(C)C)NC(=O)NNC(=O)[C@H](Cc1ccccc1)NC(=O)[C@H](CO)NC(=O)[C@H](CC(N)=O)NC(=O)[C@@H](Cc1c[nH]c2ccccc12)NC(=O)[C@H](N)Cc1ccc(O)cc1)C(=O)N[C@@H](Cc1ccccc1)C(N)=O (H-[dY][dW]NSF[azaGly]L[Arg(Me)]F-NH2) . Its Ki was 0.11

Per the record, CNC(N)=NCCC[C@H](NC(=O)[C@H](CC(C)C)NC(=O)NNC(=O)[C@H](Cc1ccccc1)NC(=O)[C@H](CO)NC(=O)[C@H](CC(N)=O)NC(=O)[C@H](CO)NC(=O)[C@H](N)Cc1ccc(O)cc1)C(=O)N[C@@H](Cc1ccccc1)C(N)=O (H-[dY]SNSF[azaGly]L[Arg(Me)]F-NH2) has Ki of 0.3

Ki measured on CNC(N)=NCCC[C@H](NC(=O)[C@H](CC(C)C)NC(=O)NNC(=O)[C@H](Cc1ccccc1)NC(=O)[C@H](CO)NC(=O)[C@H](CC(N)=O)NC(=O)[C@H](Cc1ccc2ccccc2c1)NC(=O)[C@H](N)Cc1ccc(O)cc1)C(=O)N[C@@H](Cc1ccccc1)C(N)=O (H-[dY][2Nal]NSF[azaGly]L[Arg(Me)]F-NH2) = 0.051

Consider "CNC(N)=NCCC[C@H](NC(=O)[C@H](CC(C)C)NC(=O)NNC(=O)[C@H](Cc1ccccc1)NC(=O)[C@H](CO)NC(=O)[C@H](CC(N)=O)NC(=O)[C@@H](NC(=O)[C@@H](CC(N)=O)NC(=O)[C@H](N)Cc1ccc(O)cc1)[C@@H](C)O)C(=O)N[C@@H](Cc1ccccc1)C(N)=O" . Its measured Ki is 0.25

Short answer for CNC(=N)NCCC[C@H](NC(=O)[C@H](CC(C)C)NC(=O)NNC(=O)[C@H](Cc1ccccc1)NC(=O)[C@H](CO)NC(=O)[C@H](CC(N)=O)NC(=O)[C@@H](Cc1ccncc1)NC(=O)[C@H](N)Cc1ccc(O)cc1)C(=O)N[C@@H](Cc1ccccc1)C(N)=O [KISS1-305] (H-[dY][d4Pal]NSF[azaGly]L[Arg(Me)]F-NH2) : Ki was 0.1

Recorded Ki (compound "CNC(N)=NCCC[C@H](NC(=O)[C@H](CC(C)C)NC(=O)NNC(=O)[C@H](Cc1ccccc1)NC(=O)[C@H](CO)NC(=O)[C@H](CC(N)=O)NC(=O)[C@H](Cc1ccncc1)NC(=O)[C@@H](CC(N)=O)NC(=O)[C@@H](N)Cc1ccc(O)cc1)C(=O)N[C@@H](Cc1ccccc1)C(N)=O" ): 0.16

For record CC[C@H](C)[C@H](NC(=O)[C@H](N)Cc1ccc(O)cc1)C(=O)N[C@@H](CC(N)=O)C(=O)N[C@@H](CO)C(=O)N[C@@H](Cc1ccccc1)C(=O)NNC(=O)N[C@@H](CC(C)C)C(=O)N[C@@H](CCCNC(=N)NC)C(=O)N[C@@H](Cc1ccccc1)C(N)=O (H-[dY]INSF[azaGly]L[Arg(Me)]F-NH2) the listed Ki is 0.13

Lab note: "CNC(N)=NCCC[C@H](NC(=O)[C@H](CC(C)C)NC(=O)NNC(=O)[C@H](Cc1ccccc1)NC(=O)[C@H](CO)NC(=O)[C@H](CC(N)=O)NC(=O)[C@H](Cc1c[nH]c2ccccc12)NC(=O)[C@@H](CO)NC(=O)[C@H](N)Cc1ccc(O)cc1)C(=O)N[C@@H](Cc1ccccc1)C(N)=O" gave Ki of 0.093

Entry CNC(N)=NCCC[C@H](NC(=O)[C@H](CC(C)C)NC(=O)NNC(=O)[C@H](Cc1ccccc1)NC(=O)[C@H](CO)NC(=O)[C@H](CC(N)=O)NC(=O)[C@H](Cc1ccccc1)NC(=O)[C@@H](CC(N)=O)NC(=O)[C@H](N)Cc1ccc(O)cc1)C(=O)N[C@@H](Cc1ccccc1)C(N)=O (H-[dY][dN]FNSF[azaGly]L[Arg(Me)]F-NH2) , Ki reported as 0.12

Sample CNC(=N)NCCC[C@H](NC(=O)[C@H](CC(C)C)NC(=O)NNC(=O)[C@H](Cc1ccccc1)NC(=O)[C@H](CO)NC(=O)[C@H](CC(N)=O)NC(=O)[C@H](Cc1c[nH]c2ccccc12)NC(=O)[C@H](CC(N)=O)NC(=O)[C@@H](C)N)C(=O)N[C@@H](Cc1ccccc1)C(N)=O (H-[dA]NWNSF[azaGly]L[Arg(Me)]F-NH2) ; Ki observed: 0.52

Entry "CNC(N)=NCCC[C@H](NC(=O)[C@H](CC(C)C)NC(=O)NNC(=O)[C@H](Cc1ccccc1)NC(=O)[C@H](CO)NC(=O)[C@H](CC(N)=O)NC(=O)[C@H](Cc1ccncc1)NC(=O)[C@H](CC(N)=O)NC(=O)[C@H](N)Cc1ccc(O)cc1)C(=O)N[C@@H](Cc1ccccc1)C(N)=O" — recorded Ki = 0.12
